# Test system: SW-620 colon
# protocol summary: NCI tumour cell line growth inhibition, 48 h
readout label: TGI

Below, each entry is followed by its recorded TGI result.
CC(=O)Nc1ccc(C(=O)NN2C(=O)C(Cl)/C2=C/c2ccco2)cc1 (stereo unspecified)    > 100 µM
O=CNNC(=O)Nc1cccc2ccccc12    > 100 µM
Cc1cnc2sn(-c3ccc([N+](=O)[O-])cc3)c(=O)c2c1    > 100 µM

Please respond with reported TGI (system SW-620 colon) for CC(C)(C)OC(=O)N(CCCCNC(=O)OCc1ccccc1)CCCNC(=O)OCc1ccccc1 . > 100 µM

Write down measured TGI (SW-620 colon) for this molecule. CN(C(=O)Cc1ccccc1)n1cnn(CC(=O)OC(C)(C)C)c1=S > 10 µM

Recall the reported TGI of c1ccc2c(c1)c1c(n2CCOCCN2CCCC2)CCCC1 on SW-620 colon and write it down. 32.1 µM

---

# Tested on: NCI-H23 lung
# protocol summary: NCI tumour cell line growth inhibition, 48 h
This section presents compounds with their documented TGI values.

These recorded examples may help you get a feel for the data.
[O-][N+](=Nc1ccccc1CO)c1ccccc1CO    > 100 µM
CCOC(=O)c1c(N=P(c2ccccc2)(c2ccccc2)c2ccccc2)nnc(-c2ccccc2)c1-c1ccccc1    > 100 µM
CS(=O)(=O)CCNCc1cc(-c2cc3c(Nc4ccc(OCc5cccc(F)c5)c(Cl)c4)ncnc3s2)cs1    > 25 µM

Next item in the queue.
Provide only the value of recorded TGI for CC(C)CCC[C@@H](C)[C@H]1CC[C@H]2[C@@H]3CC[C@H]4C[C@@H](CCC=C(c5cc(Cl)c(O)c(C(=O)O)c5)c5cc(Cl)c(O)c(C(=O)O)c5)CC[C@]4(C)[C@H]3CC[C@]12C > 100 µM

---

Below, each entry is listed alongside its reported TGI.
# Test system: XF 498 CNS
# protocol summary: NCI tumour cell line growth inhibition, 48 h

The following compounds have reported results that may help.
O=C1CC2CC3OC3[C@H]3c4cc5c(cc4C(=O)N1C23)OCO5 (stereo not given in full)    > 100 µM
CC1=CC(=O)CC2(C)CC[C@@H]3C[C@]12OC3(C)C (stereo not given in full)    > 100 µM

Consider the compound CC(Oc1ccc2c(-c3ccccc3)cc(=O)oc2c1)C(=O)O (stereo not given) and give its recorded TGI. > 100 µM

For Cc1ccc(NC(=O)CCc2nc(N)nc(N)c2-c2ccccc2)cc1C , write its TGI. > 100 µM

Provide TGI value for the following compound: NC(=S)/N=C(/c1nc2ccc(Cl)cc2[nH]c1=O)C(O)c1ccccc1Cl (stereo not given) > 100 µM

---

# Test system: HOP-62 NSCLC
# protocol summary: NCI tumour cell line growth inhibition, 48 h
Each entry below carries its reported GI50.

Past entries and their recorded results:
CC(C)c1c(-c2ccccc2)nc2c(C#N)c[nH]n2c1=O    25.4 µM
COc1cc(OC)c(C(=O)/C=C/c2cc3c(cc2OCc2ccccc2)OC(C)(C)CC3)cc1CC=C(C)C    6.78 µM

Now, please, on to the next compound.
// output GI50; input S=c1snc2n1CCN2 ; system HOP-62 NSCLC > 100 µM

---

# Tested on: COLO 205 colon
# protocol summary: NCI tumour cell line growth inhibition, 48 h
readout label: TGI

Example results:
CC1=NC2=Nc3nc(C)cc[n+]3CN2C=C1    > 100 µM
[O-][N+](=Nc1ccccc1CO)c1ccccc1CO    > 100 µM

# ---- query compound ----
Indicate the recorded TGI value for this compound: CC1/C=C/[C@@]2(C)CCC(C(C)(C)O)C2C(O)C[C@](C)(O)/C=C/C1 (stereo partly drawn) > 100 µM
